All figures here come from patent US20220411362A1.

Assay: Pharmacokinetic study, intravenous bolus injection in rats
Assay type: in vivo
Conditions: Sprague Dawley, rat, plasma, iv, 0.1 mg/kg, rat plasma, 0.1 mg/kg, read-out: Vss
Procedure: Pharmacokinetic (PK) studies were conducted for compounds described in this disclosure, and the PK study of K101-C1327 administered by intravenous injection in rats is given as an example. Briefly, K101-C1327 was dissolved in a pH 5 buffer solution at the concentrations of 2.0 mg/mL, and diluted to 0.04 and 0.08 mg/mL to achieve the doses of 0.1 and 0.2 mg/kg with a dosing volume of 2.5 mL/kg, respectively. […] The drug concentrations at each time point were determined by LC-MS. […]
readout.name: Vd (L/kg)
The answer is to be given in L/kg; state only the numeric part.

Query :: What Vd value was documented for this compound, `CC1=C[C@H]2[C@@]3(O)[C@H](C)C[C@]4(OC(=O)[C@@H](N)CC5CCCCC5)[C@H]([C@@H]3C=C(CO)C[C@]2(O)C1=O)C4(C)C` ?
Result :: 1.73

###

Assay: Pharmacokinetic study, intravenous bolus injection in rats
Type: in vivo
Settings: Sprague Dawley, plasma, rat, dose 0.1 mg/kg, 7 hour post dose, read-out: Concentration in Rat Plasma after Bolus Injection, Mean
readout.name: concentration at 7 hour

Query :: Look up concentration at 7 hour: CC1=C[C@H]2[C@@]3(O)[C@H](C)C[C@]4(OC(=O)[C@@H](N)CC5CCCCC5)[C@H]([C@@H]3C=C(CO)C[C@]2(O)C1=O)C4(C)C [Compound K101-C1327]
Result :: < 1 ng/mL

###

Biological target: C1b domain of human PKD1 (PKCμ) (Homo sapiens, UniProt Q15139)
Construct: Genes encoding C1b domains of human PKCα, δ, ε, θ, and PKD1 (PKCμ) were synthesized; made in house; host or cells: E. coli BL21(DE3)
Sequence (Q15139 270-320 limits assumed): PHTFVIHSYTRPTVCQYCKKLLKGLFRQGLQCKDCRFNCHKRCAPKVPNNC
Test: biochemical
Type: binding
readout.name: Ki

Answered cases to consult:
| structure.notation | Ki |
| --- | --- |
| CC1=C[C@H]2[C@@]3(O)[C@H](C)C[C@]4(OC(=O)[C@@H](N)CCCCCCc5ccc(C(F)F)cc5)[C@H]([C@@H]3C=C(CO)C[C@]2(O)C1=O)C4(C)C | 5 to 10 nM |
| CC1=C[C@H]2[C@@]3(O)[C@H](C)C[C@]4(OC(=O)[C@@H](N)C5Cc6ccccc6C5)[C@H]([C@@H]3C=C(CO)C[C@]2(O)C1=O)C4(C)C | < 5 nM |

Query :: Ki lookup needed for `CC1=C[C@H]2[C@@]3(O)[C@H](C)C[C@]4(OC(=O)[C@H](O)Cc5ccccc5)[C@H]([C@@H]3C=C(CO)C[C@]2(O)C1=O)C4(C)C` , thanks.
Result :: 30 to 60 nM

###

Molecular target: C1b domain of human PKD1 (PKCμ) (Homo sapiens, UniProt Q15139)
Construct: Genes encoding C1b domains of human PKCα, δ, ε, θ, and PKD1 (PKCμ) were synthesized; made in house; host or cells: E. coli BL21(DE3)
Assay: biochemical
Assay type: binding
pKi: −log10 of the molar value.
readout.name: pKi

Before answering, review these 6 worked examples.
| compound | pKi |
| --- | --- |
| CC1=C[C@H]2[C@@]3(O)[C@H](C)C[C@]4(OC(=O)[C@H](N)CCCCCCc5ccc(C(F)(F)F)cc5)[C@H]([C@@H]3C=C(CO)C[C@]2(O)C1=O)C4(C)C [Compound K101-C135901] | 7.52 to 9.00 |
| CC1=C[C@H]2[C@@]3(O)[C@H](C)C[C@]4(OC(=O)[C@@H](N)Cc5ccc(C(F)(F)F)cc5)[C@H]([C@@H]3C=C(CO)C[C@]2(O)C1=O)C4(C)C [Compound K101-C1342] | > 8.30 |
| CSCC[C@H](N)C(=O)O[C@@]12C[C@@H](C)[C@@]3(O)[C@@H](C=C(CO)C[C@]4(O)C(=O)C(C)=C[C@@H]34)[C@@H]1C2(C)C [Compound K101-C1338] | 7.22 to 7.52 |
| CC1=C[C@H]2[C@@]3(O)[C@H](C)C[C@]4(OC(=O)[C@H](N)CCCCCCCCc5ccccc5)[C@H]([C@@H]3C=C(CO)C[C@]2(O)C1=O)C4(C)C [Compound K101-C136101] | 8.00 to 8.30 |
| CC1=C[C@H]2[C@@]3(O)[C@H](C)C[C@]4(OC(=O)[C@@H](N)CC5CCC5)[C@H]([C@@H]3C=C(CO)C[C@]2(O)C1=O)C4(C)C [Compound K101-C1325] | 7.22 to 7.52 |
| CCCC[C@H](N)C(=O)O[C@@]12C[C@@H](C)[C@@]3(O)[C@@H](C=C(CO)C[C@]4(O)C(=O)C(C)=C[C@@H]34)[C@@H]1C2(C)C [Compound K101-C1317] | > 8.30 |

Query :: Give its pKi value. Item: CC1=C[C@H]2[C@@]3(O)[C@H](C)C[C@]4(OC(=O)[C@@H](N)CCS(C)(=O)=O)[C@H]([C@@H]3C=C(CO)C[C@]2(O)C1=O)C4(C)C [Compound K101-C1326]
Result :: 6.40 to 6.70

Query :: How about CC1=C[C@H]2[C@@]3(O)[C@H](C)C[C@]4(OC(=O)C[C@H](N)c5ccccc5)[C@H]([C@@H]3C=C(CO)C[C@]2(O)C1=O)C4(C)C [Compound K101-C1343] ?
Result :: 7.52 to 9.00

Query :: Let us now turn to CC1=C[C@H]2[C@@]3(O)[C@H](C)C[C@]4(OC(=O)CCc5ccncc5)[C@H]([C@@H]3C=C(CO)C[C@]2(O)C1=O)C4(C)C [Compound K101-C1315]
Result :: 7.22 to 7.52

Query :: Same read-out for CC1=C[C@H]2[C@@]3(O)[C@H](C)C[C@]4(OC(=O)C5CC6(CNC6)C5)[C@H]([C@@H]3C=C(CO)C[C@]2(O)C1=O)C4(C)C [Compound K101-C1305] ?
Result :: 6.70 to 7.00

Query :: Entry to check: CC1=C[C@H]2[C@@]3(O)[C@H](C)C[C@]4(OC(=O)[C@H](CC5CCCCC5)N(C)C)[C@H]([C@@H]3C=C(CO)C[C@]2(O)C1=O)C4(C)C [Compound K101-C1365]
Result :: 7.22 to 7.52

Query :: Request: CC1=C[C@H]2[C@@]3(O)[C@H](C)C[C@]4(OC(=O)CCCc5ccccc5)[C@H]([C@@H]3C=C(CO)C[C@]2(O)C1=O)C4(C)C [Compound K101-C1324]
Result :: > 8.30

Query :: Quick one: CC/C=C\C/C=C\C/C=C\C/C=C\C/C=C\C/C=C\CCC(=O)O[C@@]12C[C@@H](C)[C@@]3(O)[C@@H](C=C(CO)C[C@]4(O)C(=O)C(C)=C[C@@H]34)[C@@H]1C2(C)C [Compound K101-C1333]
Result :: > 8.30

Query :: Field entry: CC1=C[C@H]2[C@@]3(O)[C@H](C)C[C@]4(OC(=O)[C@@H](N)C(C)(C)C)[C@H]([C@@H]3C=C(CO)C[C@]2(O)C1=O)C4(C)C [Compound K101-C1346]
Result :: 8.00 to 8.30

Query :: Quick one: CC1=C[C@H]2[C@@]3(O)[C@H](C)C[C@]4(OC(=O)[C@@H](O)Cc5ccccc5)[C@H]([C@@H]3C=C(CO)C[C@]2(O)C1=O)C4(C)C [Compound K101-C1354]
Result :: 7.52 to 9.00

Query :: Item: CC1=C[C@H]2[C@@]3(O)[C@H](C)C[C@]4(OC(=O)CCc5ncc(-c6ccc(Cl)cc6)o5)[C@H]([C@@H]3C=C(CO)C[C@]2(O)C1=O)C4(C)C [Compound K101-C1321]
Result :: > 8.30

Query :: Cool, now CC1=C[C@H]2[C@@]3(O)[C@H](C)C[C@]4(OC(=O)CCc5c[nH]c6ncccc56)[C@H]([C@@H]3C=C(CO)C[C@]2(O)C1=O)C4(C)C [Compound K101-C1322]
Result :: 8.00 to 8.30

Query :: Continue with CC1=C[C@H]2[C@@]3(O)[C@H](C)C[C@]4(OC(=O)[C@@H](N)C(C)(C)c5ccc(C(F)(F)F)cc5)[C@H]([C@@H]3C=C(CO)C[C@]2(O)C1=O)C4(C)C [Compound K101-C134902]
Result :: > 8.30

Query :: Ok, now CC1=C[C@H]2[C@@]3(O)[C@H](C)C[C@]4(OC(=O)CC5CC6(CNC6)C5)[C@H]([C@@H]3C=C(CO)C[C@]2(O)C1=O)C4(C)C [Compound K101-C1306]
Result :: 7.52 to 9.00

Query :: Same lookup for CC1=C[C@H]2[C@@]3(O)[C@H](C)C[C@]4(OC(=O)C5CC6(C5)CN(C(=O)OC(C)(C)C)C6)[C@H]([C@@H]3C=C(CO)C[C@]2(O)C1=O)C4(C)C [Compound K101-C1311] , please.
Result :: > 8.30

Query :: Consider next the compound CC1=C[C@H]2[C@@]3(O)[C@H](C)C[C@]4(O)[C@H]([C@@H]3C=C(CO)C[C@]2(O)C1=O)C4(C)C [Compound K101-C13OH] in the same way.
Result :: 5.22 to 5.40
